# system: Insulin-like growth factor 1 receptor (Homo sapiens)
# Sequence (P08069 31-736 limits assumed): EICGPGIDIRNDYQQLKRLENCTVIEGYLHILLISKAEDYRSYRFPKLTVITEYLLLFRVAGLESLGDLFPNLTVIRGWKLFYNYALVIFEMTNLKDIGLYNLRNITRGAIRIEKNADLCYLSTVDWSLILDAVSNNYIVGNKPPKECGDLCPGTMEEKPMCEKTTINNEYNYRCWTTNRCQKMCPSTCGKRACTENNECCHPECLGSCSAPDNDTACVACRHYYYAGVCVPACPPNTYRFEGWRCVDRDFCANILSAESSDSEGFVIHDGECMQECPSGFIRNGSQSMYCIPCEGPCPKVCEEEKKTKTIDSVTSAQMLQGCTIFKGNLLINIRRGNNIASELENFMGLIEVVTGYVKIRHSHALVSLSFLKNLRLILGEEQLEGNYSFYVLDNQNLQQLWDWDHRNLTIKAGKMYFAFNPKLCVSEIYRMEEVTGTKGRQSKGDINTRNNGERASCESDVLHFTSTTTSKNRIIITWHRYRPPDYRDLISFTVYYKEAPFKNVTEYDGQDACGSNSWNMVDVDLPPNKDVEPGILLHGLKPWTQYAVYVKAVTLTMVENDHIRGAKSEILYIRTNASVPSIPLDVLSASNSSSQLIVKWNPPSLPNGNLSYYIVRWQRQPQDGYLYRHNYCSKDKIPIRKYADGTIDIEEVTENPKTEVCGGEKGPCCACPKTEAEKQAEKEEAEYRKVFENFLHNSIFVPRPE
# Sequence (P08069 741-1367 limits assumed): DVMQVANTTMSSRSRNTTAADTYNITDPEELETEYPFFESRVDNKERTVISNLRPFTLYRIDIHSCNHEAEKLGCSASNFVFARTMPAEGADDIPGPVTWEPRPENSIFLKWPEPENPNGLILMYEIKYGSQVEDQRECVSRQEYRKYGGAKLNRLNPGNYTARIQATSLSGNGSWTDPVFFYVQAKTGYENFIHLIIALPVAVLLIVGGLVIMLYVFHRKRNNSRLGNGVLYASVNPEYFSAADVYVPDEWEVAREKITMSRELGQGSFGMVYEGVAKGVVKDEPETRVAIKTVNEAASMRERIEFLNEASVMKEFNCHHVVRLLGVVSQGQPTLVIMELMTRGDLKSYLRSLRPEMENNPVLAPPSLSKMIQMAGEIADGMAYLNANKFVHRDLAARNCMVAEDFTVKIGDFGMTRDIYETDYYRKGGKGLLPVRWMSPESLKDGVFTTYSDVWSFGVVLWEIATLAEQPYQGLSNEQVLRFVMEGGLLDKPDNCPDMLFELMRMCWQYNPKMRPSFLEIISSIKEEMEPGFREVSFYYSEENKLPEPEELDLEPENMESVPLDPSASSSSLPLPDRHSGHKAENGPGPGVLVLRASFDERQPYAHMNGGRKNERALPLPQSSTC
# assayInfo: Inhibition of human recombinant GST-IGF1R activity
pIC50: −log10 of the molar value.
propertyLabel: pIC50

Some compounds with known pIC50 results, for comparison:
| chemicalStructure | pIC50 |
| --- | --- |
| Nc1nccn2c(C3CCC3)nc(-c3cccc(OCc4ccccc4)c3)c12 | 6.22 |
| NC[C@H]1CC[C@H](c2nc(-c3cccc(OCc4ccccc4)c3)c3c(N)nccn32)CC1 | 6.92 |
| COc1ccc(-c2nc(C3CCC3)n3ccnc(N)c23)cc1OCc1ccccc1 | 5.87 |
| Nc1nccn2c1c(-c1cccc(OCc3ccccc3)c1)nc2[C@H]1CC[C@H](CN2CCC2)CC1 | 7.09 |

[1] NC[C@H]1C[C@@H](c2nc(-c3cccc(OCc4ccccc4)c3)c3c(N)nccn32)C1
[2] NC[C@H]1CC[C@@H](c2nc(-c3cccc(OCc4ccccc4)c3)c3c(N)nccn32)CC1
Between item 1 and item 2 , which reported pIC50 is smaller? // respond with label for picked entry
2
